system: CEM cells HIV-1 protection, formazan growth assay; experiment: NCI AIDS Antiviral Assay;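 active = compounds giving half or more protection of infected cells from virus-caused growth loss, again on retest; inactive = the rest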
Outcome codes: active, inactive

{"columns": ["COMPOUND", "DISCRETE LABEL"],
 "data": [
  ["O=C(c1ccccc1)[C@H]1Nc2ccc(Cl)cc2[C@H]2OCCC[C@@H]12", "inactive"],
  ["Nc1cc(Cl)ccc1SSc1ccc(Cl)cc1N", "inactive"],
  ["COc1ccc(-c2oc(C=Nc3ccccc3)c([N+](=O)[O-])c2-c2ccc(OC)c(OC)c2)cc1OC", "inactive"],
  ["O=C(NCCCCCCCN1CCCCCCC1)C(C1CCCCC1)C1CCCCC1", "inactive"],
  ["c1ccc2c(c1)n1c(N3CCOCC3)[n+]3ccccc3c1c1c3cccc[n+]3c(N3CCOCC3)n21", "inactive"],
  ["CC#CC(O)(C(=O)OC1CC2CCC(C1)N2C)C1CCCC1 (stereo unspecified)", "inactive"],
  ["COc1cc(/C=C/C(=O)C(C)(C)C)cc(OC)c1OC", "inactive"],
  ["O=C(O)CS(=O)(=O)O", "inactive"],
  ["Cc1ccc(-c2n[nH]c(CC#N)n2)cc1", "inactive"],
  ["CCOC(=O)/C(=C\\c1cccc(OC)c1)P(=O)(OCC)OCC", "inactive"],
  ["COS(=O)CCOC(=O)c1ccccc1SSc1ccccc1C(=O)OCCS(=O)OC (stereo unspecified)", "active"]
]}

====

Entries annotated with measured EC50
system: CEM cells HIV-1 protection, formazan growth assay; experiment: NCI AIDS Antiviral Assay

{"columns": ["MOLECULE", "EC50"],
 "data": [
  ["O=C1C(=Cc2ccc(Cl)c(Cl)c2)C([O-])=C([P+](c2ccccc2)(c2ccccc2)c2ccccc2)C([O-])=C1[P+](c1ccccc1)(c1ccccc1)c1ccccc1", "> 100 µM"],
  ["CCCCN(CCCC)NC(=S)Nc1ccccc1", "> 35.5 µM"],
  ["O=S(c1ccccc1)[C@H]1CC2C3CC4C2C4C31 (stereo partly specified)", "> 107 µM"],
  ["CN(N)P(=O)(c1ccccc1)N(C)N", "> 1150 µM"],
  ["N#Cc1cc2c(n(C3OC(CO)C(O)C(O)C3O)c1=S)CCCC2 (stereo unspecified)", "> 200 µM"],
  ["COc1ccc(/C=C(\\Cl)c2ccc(OC)c(OC)c2)cc1OC", "56.2 µM"],
  ["NC1=NS(=O)(=O)N=C(N)C1=NNc1cccc(Cl)c1", "> 832 µM"],
  ["CC(C)C1NC(=O)c2ccccc2S1 (stereo unspecified)", "> 871 µM"],
  ["O=C1CC(NC(=O)C(F)(F)F)c2c1csc2Br (stereo unspecified)", "> 200 µM"],
  ["COc1ccc(N)c(N2C(=O)c3ccccc3C2=O)c1", "> 200 µM"],
  ["COc1cccc(Nc2nc(NS(=O)(=O)c3cc(C)c(Cl)cc3S)n[nH]2)c1", "> 200 µM"]
]}

====

system: CEM cells HIV-1 protection, formazan growth assay; experiment: NCI AIDS Antiviral Assay; conditions: measured here: growth of uninfected CEM cells
Where a SMILES comes first, the peptide text is derived from it. [ ]: non-standard residue; d: D form. The star is where a group is joined. ξ: configuration not given here. ξD = NC(CC(=O)O)C(=O)O; Boc = CC(C)(C)OC(=O)*; Aib = CC(C)(N)C(=O)O; OtBu = CC(C)(C)O*
As shown below, each of these molecules has a reported IC50 value.

{"columns": ["MOLECULE", "IC50"],
 "data": [
  ["COC(=O)C(Cc1ccc2c(c1)OCO2)(NC(=O)c1ccccc1)P(=O)(OC)OC (stereo not given)", "> 575 µM"],
  ["COC(=O)C(C)(C)NC(=O)C(C)(C)NC(=O)C(CC(=O)OC(C)(C)C)NC(=O)OC(C)(C)C (stereo not given) (Boc-[ξD](OtBu)-[Aib]-[Aib]-OMe)", "> 200 µM"],
  ["CC(Br)(c1ccccc1)[P+](c1ccccc1)(c1ccccc1)c1ccccc1 (stereo not given)", "0.871 µM"],
  ["SCc1ccc(-c2ccc(CS)cc2)cc1", "> 4.27 µM"],
  ["CC1CN=C(NS(=O)(=O)c2cc(C(=O)Nc3ccccc3)c(Cl)cc2S)NN1 (stereo not given)", "19.1 µM"]
]}

====

test system: CEM cells HIV-1 protection, formazan growth assay; assay: NCI AIDS Antiviral Assay
ENDPOINT: EC50

{"columns": ["MOLECULE", "SYSTEM UNDER TEST", "ENDPOINT", "EXPERIMENTAL RESULT"],
 "data": [
  ["Cc1cc2c(O)c(c1)COCc1cc(C)cc(c1O)COCc1cc(C)cc(c1O)COC2", "CEM cells HIV-1 protection, formazan growth assay", "EC50", "> 200 µM"],
  ["CC(=O)OC1CN2CCC1CC2 (stereo not given)", "CEM cells HIV-1 protection, formazan growth assay", "EC50", "> 200 µM"],
  ["CC(C)=CCC(O)[C@](C)(O)[C@H]1[C@H](O)C[C@@]2(C)[C@@H]3CCc4cc(O)c(OC5OC(CO)C(O)C(O)C5O)cc4C3(C)C(=O)C[C@]12C (stereo not given in full)", "CEM cells HIV-1 protection, formazan growth assay", "EC50", "> 200 µM"],
  ["CC(=O)Nc1ccc(C(=O)n2[nH]c(C)c(/C=C3\\C(=O)C=Cc4ccccc43)c2=O)cc1", "CEM cells HIV-1 protection, formazan growth assay", "EC50", "> 87.1 µM"],
  ["COC(=O)C(Cc1ccccc1)NC(=O)CCCNC(=O)OCc1ccccc1 (stereo not given)", "CEM cells HIV-1 protection, formazan growth assay", "EC50", "> 200 µM"]
]}

====

tested on: CEM cells HIV-1 protection, formazan growth assay; assay: NCI AIDS Antiviral Assay; details: measured here: growth of uninfected CEM cells
ENDPOINT: log10 of IC50 (log10 of the value in µM)

{"columns": ["GIVEN SMILES", "log10 of IC50"],
 "data": [
  ["O=C(Cc1cccs1)N[C@@H]1C(=O)N2C(C(=O)OC(c3ccccc3)c3ccccc3)=C(CO)CS[C@H]12", 2.29],
  ["O=C(NCCCCCCCN1CCCCCCC1)C(C1CCCCC1)C1CCCCC1", 1.03],
  ["CC(=O)Nc1[nH]n(C)c(=O)c1-c1nnc(C)s1", 2.64],
  ["S=c1[nH]ncc(SCc2ccccc2)c1SCc1ccccc1", 1.12],
  ["O=C(/C=C/c1ccccc1O)c1ccc([N+](=O)[O-])cc1", 1.73],
  ["O=C(O)c1nc2cc(C(F)(F)F)ccc2nc1Nc1ccc(F)cc1", 0.89]
]}

====

test system: CEM cells HIV-1 protection, formazan growth assay; experiment: NCI AIDS Antiviral Assay
pEC50: −log10 of the molar value. Where a SMILES comes first, the peptide text is derived from it. [ ]: non-standard residue; d: D form. The star is where a group is joined. NMeAc5c = CNC1(C(=O)O)CCCC1; Cbz = O=C(OCc1ccccc1)*; Boc = CC(C)(C)OC(=O)*; OBn = c1ccc(CO*)cc1; tBu = CC(C)(C)*

{"columns": ["MOLECULE", "pEC50"],
 "data": [
  ["CNC(=O)NCNC(=O)NC", "< 3.25"],
  ["c1cncc(C2c3[nH]c4ccccc4c3CCN2CCCN2CCCCC2)c1 (stereo not given)", "< 5.41"],
  ["OC(CCN1CCCCCC1)(Cc1ccccc1)c1ccccc1 (stereo not given)", "< 3.70"],
  ["O=C(Nc1nc(C23CC4CC(CC(C4)C2)C3)cs1)c1cc2ccccc2oc1=O", "< 3.70"],
  ["Cc1cc(S(=O)(=O)NC(=NCCc2ccccc2)NN)c(S)cc1Cl", "< 3.70"],
  ["O=c1c(-c2ccccc2)nnc2n(Cc3ccccc3)c3ccccc3n12", "< 3.70"],
  ["Cc1ccccc1N=Nc1c(-c2ccccc2)nn(C(=O)CC(=O)Nc2cccc(Cl)c2)c1-c1ccccc1", "< 4.60"],
  ["c1cc(-c2ccsc2-c2ccsc2)cs1", "< 3.70"],
  ["CC1(C)C(=O)C2(C#N)CCC1C2 (stereo not given)", "< 3.70"],
  ["Cc1ccc(Nc2cn(COCc3ccccc3)c(=O)[nH]c2=O)cc1", "< 3.70"],
  ["Cn1c(=O)c2c(nc3n(Cc4ccccc4)c(=O)c(NCCBr)cn23)n(C)c1=O", "< 3.90"],
  ["COc1ccc(-c2onc3ccc(Cl)cc23)cc1", "< 4.70"],
  ["C(=C\\c1ccnc2ccccc12)/c1ccnc2ccccc12", "< 4.88"],
  ["Cc1c(O)ccc2c(O)c(NC(=O)c3ccc4c(c3)CCC(C)(C)O4)c(=O)oc12", "< 3.70"],
  ["Cc1cc2c(C)nn(Cc3ccc(Cl)cc3)c2c(C#N)c1C", "< 4.36"],
  ["COC(=O)CN(CC(=O)NCCNC(=O)OC(C)(C)C)C1CCCCC1N(CC(=O)OC)CC(=O)OC (stereo not given)", "< 3.70"],
  ["COc1ccc2nc3cccc([N+](=O)[O-])c3c(NCCN(CCO)CCO)c2c1", "< 5.70"],
  ["[Cu+2].[O-]/N=C/c1ccc[oH+]1.[O-]/N=C/c1ccc[oH+]1", "< 3.70"],
  ["CC(OC(C)(C)C)C(NC(=O)C(CCCCNC(=O)OC(C)(C)C)NC(=O)C(Cc1c[nH]c2ccccc12)NC(=O)OCc1ccccc1)C(=O)NC(Cc1ccccc1)C(=O)N(C)C1(C(=O)NC(Cc2ccccc2)C(=O)OCc2ccccc2)CCCC1 (stereo not given) (Cbz-WK(Boc)T(tBu)F[NMeAc5c]F-OBn; configuration not given here)", "< 4.30"],
  ["C[N+]12CCCCC1CC(=O)CC2 (stereo not given)", "< 3.07"]
]}
